Molecular target: UniProtKB P00533
Sequence (P00533 25-1210): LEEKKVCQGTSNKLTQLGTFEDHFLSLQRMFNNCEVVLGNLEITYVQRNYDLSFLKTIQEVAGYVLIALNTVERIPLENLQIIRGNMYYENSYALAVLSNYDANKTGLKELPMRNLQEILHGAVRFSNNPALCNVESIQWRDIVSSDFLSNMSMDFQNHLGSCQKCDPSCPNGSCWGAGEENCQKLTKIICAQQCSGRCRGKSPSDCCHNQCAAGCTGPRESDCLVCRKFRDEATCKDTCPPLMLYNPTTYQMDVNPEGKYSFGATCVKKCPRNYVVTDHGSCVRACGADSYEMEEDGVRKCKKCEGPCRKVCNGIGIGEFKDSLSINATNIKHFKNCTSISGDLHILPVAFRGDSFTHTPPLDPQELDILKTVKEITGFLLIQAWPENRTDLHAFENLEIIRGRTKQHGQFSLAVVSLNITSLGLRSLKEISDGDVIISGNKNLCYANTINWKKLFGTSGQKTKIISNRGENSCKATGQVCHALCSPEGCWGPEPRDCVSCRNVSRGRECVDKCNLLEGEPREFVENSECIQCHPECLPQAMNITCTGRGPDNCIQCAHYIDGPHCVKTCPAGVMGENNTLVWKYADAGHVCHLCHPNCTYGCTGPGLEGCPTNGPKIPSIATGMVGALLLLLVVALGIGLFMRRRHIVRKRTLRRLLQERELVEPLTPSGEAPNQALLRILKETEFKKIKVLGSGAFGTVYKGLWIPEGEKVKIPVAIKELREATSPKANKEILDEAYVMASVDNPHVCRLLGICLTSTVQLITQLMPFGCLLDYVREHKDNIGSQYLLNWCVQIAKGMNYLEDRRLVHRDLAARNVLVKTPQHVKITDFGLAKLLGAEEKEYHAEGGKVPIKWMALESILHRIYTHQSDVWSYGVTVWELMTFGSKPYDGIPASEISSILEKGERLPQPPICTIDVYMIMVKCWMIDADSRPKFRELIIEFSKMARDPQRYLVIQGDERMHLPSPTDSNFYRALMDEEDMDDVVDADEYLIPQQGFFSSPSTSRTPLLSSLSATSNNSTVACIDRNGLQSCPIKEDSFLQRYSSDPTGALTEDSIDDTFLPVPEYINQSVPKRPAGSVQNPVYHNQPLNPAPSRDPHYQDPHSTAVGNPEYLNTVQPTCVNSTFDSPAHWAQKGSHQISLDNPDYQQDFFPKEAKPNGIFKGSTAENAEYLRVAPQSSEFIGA
Assay: Inhibition of erbB1 autophosphorylation in EGF-stimulated intact A431 cells (Western blot)
Details: read-out: cellular erbB1 autophosphorylation IC50; intact A431 cells
measured parameter: IC50 (µM)
Please reply with the bare figure in µM and do not write the unit itself.

Would you mind telling me what IC50 value was observed for Cn1cnc([N+](=O)[O-])c1C[N+](C)(C)C/C=C/C(=O)Nc1ccc2ncnc(Nc3cccc(Br)c3)c2c1.[Br-] ?
0.555

---

Assay: Steady state radiolytic reduction by the CO2.− radical with HPLC-MS
Assay type: physicochemical
Settings: HPLC-MS at 0.95 reducing equivalents
measured parameter: % Loss of prodrug

> print(dat)
                                   molecule  result
1  CC[N+](CC)(CCOc1ccc(Nc2ncc3cc(-c4c(Cl)cccc4Cl)c(=O)n(C)c3n2)cc1)Cc1c([N+](=O)[O-])ncn1C.[Br-]     92%
2  Cn1c(C[N+](C)(C)C/C=C/C(=O)Nc2ccc3ncnc(Nc4cccc(Br)c4)c3c2)ccc1[N+](=O)[O-].[Br-]     63%
3  Cn1cnc([N+](=O)[O-])c1C[N+](C)(C)C/C=C/C(=O)Nc1ccc2ncnc(Nc3cccc(Br)c3)c2c1.[Br-]     55%

Could you now look at the following compound, please?
Consider the compound Cn1cc([N+](=O)[O-])nc1C[N+](C)(C)C/C=C/C(=O)Nc1ccc2ncnc(Nc3cccc(Br)c3)c2c1 and give its measured % Loss of prodrug.
33%

---

Test system: A431 cells
Assay: Cellular growth inhibition (sulforhodamine B)
Conditions: Homo sapiens, A-431, 4 h, read-out: Cellular Growth Inhibition IC50 A431 Anoxic
# Lookup of reported IC50 keyed by entry
Write it as a number; the unit nM goes unstated.

API: value(readout= IC50, system= A431 cells, query= C#Cc1cccc(Nc2ncnc3cnc(NC(=O)/C=C/C[N+](C)(C)Cc4c([N+](=O)[O-])ncn4C)cc23)c1 [Compound 58] )
35

Missing value: IC50, A431 cells, entry CN(C)C/C=C/C(=O)Nc1cc2c(Nc3ccc(F)c(Br)c3)ncnc2cn1 [Compound 161] . Fill in?
28
